Every entry's value here was drawn from patent US9475779B2.

biological target: neutrophil elastase (Homo sapiens (Human), UniProt P08246); experiment: biochemical
Sequence (P08246 whole entry, looked up): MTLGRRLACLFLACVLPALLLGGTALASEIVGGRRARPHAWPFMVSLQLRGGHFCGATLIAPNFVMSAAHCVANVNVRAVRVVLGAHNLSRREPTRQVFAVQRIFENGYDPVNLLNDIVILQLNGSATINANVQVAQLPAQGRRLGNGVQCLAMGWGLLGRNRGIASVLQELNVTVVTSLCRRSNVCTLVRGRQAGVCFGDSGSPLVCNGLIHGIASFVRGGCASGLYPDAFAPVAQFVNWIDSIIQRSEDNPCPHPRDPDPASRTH
Recorded EC50 values for a group of compounds are listed next.

- compound: "CN1C(=O)N(c2cccc(C(F)(F)F)c2)C2=C(C(=O)CC2)[C@H]1c1ccc(C#N)cc1S(=O)(=O)CCO"
  target_of_assay: "neutrophil elastase (Homo sapiens (Human), UniProt P08246)"
  cmp: "="
  EC50 (nM): 1
- compound: "CCNC(=O)N1C(=O)N(c2ccnc(C(F)(F)F)c2)C2=C(C(=O)CC2)C1c1ccc(C#N)cc1S(=O)(=O)CC (single isomer, unassigned)"
  target_of_assay: "neutrophil elastase (Homo sapiens (Human), UniProt P08246)"
  cmp: "<"
  EC50 (nM): 1
- compound: "CN1C(=O)N(c2cccc(C(F)(F)F)c2)C2=C(C(=O)CC2)C1c1ccc(C#N)cc1C(C)(C)O (stereo not shown)"
  target_of_assay: "neutrophil elastase (Homo sapiens (Human), UniProt P08246)"
  cmp: "="
  EC50 (nM): 1
- compound: "CN1C(=O)N(c2cccc(C(F)(F)F)c2)C2=C(C(=O)CC2)C1c1ccc(C#N)cc1CO (single isomer, unassigned)"
  target_of_assay: "neutrophil elastase (Homo sapiens (Human), UniProt P08246)"
  cmp: "="
  EC50 (nM): 2

----------
molecular target: neutrophil elastase (Homo sapiens (Human), UniProt P08246); assay: biochemical; type: biochemical; conditions: Neutrophil Elastase assay, substrate MeOSuc-Ala-Ala-Pro-Val-AMC; read-out: IC50
Exam item: assign y to entries whose IC50 is below 60 nM and n to entries at or above 60 nM. Note that a value of exactly 60 nM receives n.

- compound: "COCCS(=O)(=O)c1cc(C#N)ccc1C1C2=C(CCC2=O)N(c2cccc(C(F)(F)F)c2)C(=O)N1C (stereo not shown) [B.1.4]"
  cat: "y"
- compound: "CCNC(=O)N1C(=O)N(c2cccc(C(F)(F)F)c2)C2=C(C(=O)CC2)C1c1ccc(C#N)cc1[S+](C)[O-] (stereo not shown) [Example C.3]"
  cat: "y"
- compound: "CCS(=O)(=O)c1cc(C#N)ccc1C1C2=C(CCC2=O)N(c2ccnc(C(F)(F)F)c2)C(=O)N1C(=O)NC (stereo not shown) [Example D.4]"
  cat: "y"
- compound: "CS(=O)(=O)c1cc(C#N)ccc1C1NC(=O)N(c2cc(C(F)(F)F)ccn2)C2=C1C(=O)CC2 (stereo not shown) [D.2.2]"
  cat: "n"
- compound: "CCNC(=O)N1C(=O)N(c2cncc(Br)c2)C2=C(C(=O)CC2)C1c1ccc(C#N)cc1S(C)(=O)=O (stereo not shown) [D.4.7]"
  cat: "y"
- compound: "COCCS(=O)(=O)c1cc(C#N)ccc1C1NC(=O)N(c2cccc(C(F)(F)F)c2)C2=C1C(=O)CC2 (stereo not shown) [B.1.1]"
  cat: "y"
- compound: "CCNC(=O)N1C(=O)N(c2ccnc(C(F)(F)F)c2)C2=C(C(=O)CC2)C1c1ccc(C#N)cc1S(C)(=O)=O (single isomer, unassigned) [D.4.10]"
  cat: "y"
- compound: "CNC(=O)N1C(=O)N(c2cncc(C(F)(F)F)c2)C2=C(C(=O)CC2)C1c1ccc(C#N)cc1S(C)(=O)=O (stereo not shown) [D.4.2]"
  cat: "y"
- compound: "CS(=O)(=O)c1cc(C#N)ccc1C1NC(=O)N(c2cncc(Br)c2)C2=C1C(=O)CC2 (stereo not shown) [D.2.3]"
  cat: "n"
- compound: "CS(=O)(=O)c1cc(C#N)ccc1C1NC(=O)N(c2cncc(Cl)c2)C2=C1C(=O)CC2 (stereo not shown) [D.2.4]"
  cat: "n"
- compound: "CCS(=O)(=O)c1cc(C#N)ccc1C1NC(=O)N(c2ccnc(C(F)(F)F)c2)C2=C1C(=O)CC2 (stereo not shown) [Example D.2]"
  cat: "y"
- compound: "CN1C(=O)N(c2cccc(C(F)(F)F)c2)C2=C(C(=O)CC2)C1c1ccc(C#N)cc1[S+](C)[O-] (single isomer, unassigned) [Example C.1A]"
  cat: "n"
- compound: "CNC(=O)N1C(=O)N(c2cncc(Br)c2)C2=C(C(=O)CC2)C1c1ccc(C#N)cc1S(C)(=O)=O (stereo not shown) [D.4.6]"
  cat: "y"
- compound: "CN1C(=O)N(c2cncc(Cl)c2)C2=C(C(=O)CC2)C1c1ccc(C#N)cc1S(C)(=O)=O (stereo not shown) [D.3.4]"
  cat: "y"
- compound: "CCNC(=O)N1C(=O)N(c2ccnc(C(F)(F)F)c2)C2=C(C(=O)CC2)C1c1ccc(C#N)cc1S(=O)(=O)CC (single isomer, unassigned) [Example D.4.1B]"
  cat: "n"
